Data origin: ChEMBL document CHEMBL5724914

details: human gut metagenome, 24 h, 2 µM; also: call rule not given here
Readout Name: Bacterial Biotransformation

Illustrative cases are given below, each with its answer.
CN(C)C(=O)C(CCN1CCC(O)(c2ccc(Cl)cc2)CC1)(c1ccccc1)c1ccccc1 [LOPERAMIDE] : Compound metabolized
COc1ccc2c(c1OC)C(=O)O[C@@H]2[C@H]1c2c(cc3c(c2OC)OCO3)CCN1C : Compound metabolized
CN1CC(=O)N2[C@H](c3ccc4c(c3)OCO4)c3[nH]c4ccccc4c3C[C@@H]2C1=O : Compound metabolized
Nc1c2c(nc3ccccc13)CCCC2 : Compound NOT metabolized
CCN(CC)C(C)CN1c2ccccc2Sc2ccccc21 (stereo not given) : Compound metabolized
OCCOCCN1CCN(C2=Nc3ccccc3Sc3ccccc32)CC1 : Compound NOT metabolized
CN1C(C(=O)Nc2ccccn2)=C(O)c2sccc2S1(=O)=O : Compound NOT metabolized
CCC(=O)NCC[C@@H]1CCc2ccc3c(c21)CCO3 : Compound metabolized

Report Bacterial Biotransformation for every entry below.
1. CN/C(=N/CCSCc1nc[nH]c1C)NC#N
2. CN(C)CCC=C1c2ccccc2C=Cc2ccccc21

1: Compound metabolized; 2: Compound metabolized

----------
conditions: human gut metagenome, 24 h, 2 µM
Readout Name: Bacterial Biotransformation

Illustrative cases are given below, each with its answer.
CN/C(=N/CCSCc1nc[nH]c1C)NC#N : Compound metabolized
O=C(O)CCc1nc(-c2ccccc2)c(-c2ccccc2)o1 : Compound metabolized
CN1CCOC(c2ccccc2)c2ccccc2C1 (configuration not stated) : Compound metabolized
CCCc1nn(C)c2c(=O)[nH]c(-c3cc(S(=O)(=O)N4CCN(C)CC4)ccc3OCC)nc12.O=C(O)CC(O)(CC(=O)O)C(=O)O [SILDENAFIL CITRATE] : Compound metabolized
CNCCC(Oc1ccc(C(F)(F)F)cc1)c1ccccc1 (configuration not stated) : Compound NOT metabolized

Report Bacterial Biotransformation for every entry below.
1. CC(C)N(CCC(C(N)=O)(c1ccccc1)c1ccccn1)C(C)C.O=P(O)(O)O (configuration not stated) [DISOPYRAMIDE PHOSPHATE]
2. CCCC1O[C@@H]2C[C@H]3[C@@H]4CCC5=CC(=O)C=C[C@]5(C)[C@H]4[C@@H](O)C[C@]3(C)[C@]2(C(=O)CO)O1 (some centres not stated) [BUDESONIDE]
3. CO[C@]12C[C@@H](COC(=O)c3cncc(Br)c3)CN(C)[C@@H]1Cc1cn(C)c3cccc2c13

Compound metabolized
Compound metabolized
Compound NOT metabolized

Report Bacterial Biotransformation for every entry below.
1. COc1ccc2[nH]c([S+]([O-])Cc3ncc(C)c(OC)c3C)nc2n1 (configuration not stated)
2. Cc1ccnc2c1NC(=O)c1cccnc1N2C1CC1

Compound NOT metabolized
Compound metabolized

Report Bacterial Biotransformation for every entry below.
1. CN1CCc2cccc3c2[C@H]1Cc1ccc(O)c(O)c1-3
2. CCN(CC)CCOCCOC(=O)C1(c2ccccc2)CCCC1.O=C(O)CC(O)(CC(=O)O)C(=O)O [CARBETAPENTANE CITRATE]
3. COc1ccc2[nH]c([S+]([O-])Cc3ncc(C)c(OC)c3C)nc2c1 (configuration not stated)
4. Cc1ccc(/C(=C\CN2CCCC2)c2ccccn2)cc1
5. CCOC(=O)[C@H](CCc1ccccc1)N[C@@H](C)C(=O)N1[C@H](C(=O)O)C[C@H]2CCCC[C@@H]21
6. Cc1nc2n(c(=O)c1CCN1CCC(c3noc4cc(F)ccc34)CC1)CCCC2O (configuration not stated)
7. COc1ccccc1N1CCN(CC(O)COc2cccc3ccccc23)CC1 (configuration not stated)

["Compound NOT metabolized", "Compound metabolized", "Compound metabolized", "Compound metabolized", "Compound metabolized", "Compound metabolized", "Compound NOT metabolized"]
